# SYSTEM TESTED: T1, his-tagged murine TIGIT (Acro Biosystems #TIT-M52E6) (murine, UniProt P86176 29-148, limits assumed)
# T1 construct: Bought protein; also called mouse his-tagged TIGIT; not shown: his tag
# T1 sequence (looked up): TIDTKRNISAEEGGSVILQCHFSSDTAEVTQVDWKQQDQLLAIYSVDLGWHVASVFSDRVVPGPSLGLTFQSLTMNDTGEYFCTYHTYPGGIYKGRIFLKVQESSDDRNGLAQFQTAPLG
# METHOD NOTES: ELISA, coated His-TIGIT, 1 ug/ml
Record form. Attribute: Elisa OD450. Fill in for each entry.
Give bare numbers, in OD450.

| BINDER | UNITS | Elisa OD450 |
| --- | --- | --- |
| 43586p2.B02 (scFv, V domains shown) VH: EVQLLESGGGLVQPGGSLRLSCAASGFTFTSYAMSWVSQAPGKGLEWVAGISYDGSSKYYADSVKGRLTISRDNSKNTLYLQMNSLRAEDTAIYYCAKHLTGGTTDYYYYAMDVWGQGTTVTVSS VL: QSVLTQPPSASGTPGQRVTISCSGSRSNIGTNRYVHWYQQLPGTAPKLLIYGNHQRPSGVPDRFSGSKSGTSASLAISGLQSEDEADYYCAAWDDSLSAWVFGGGTKLTVL | OD450 | 0.046 |

Below are 2 binders. Give each one its Elisa OD450.
1. 43645p1.F12 (scFv, V domains shown) VH: EVQLLESGGGLVQPGGSLRLSCAASGFTFSDYWMSWVRQAPGKGLEWVSSINWNGDNTYYYADSVKGRFTISRDNSKNTLYLQMNSLRAEDTAVYYCAKSHTVLQYGMDVWGQGTTVTVSS VL: QSVLTQPPSASGTPGQRVTISCSGSSSNIQSNYVYWYQQLPGTAPKLLIYGNHQRPSGVPDRFSGSKSDTSASLAISGLQSEDEADYYCATWDASLNVWVFGGGTKLTVL
2. 43586p1.2.F9 (scFv, V domains shown) VH: EVQLLESGGGLVQPGGSLRLSCAASGFTFDDYVMSWVRQAPGKGLEWVSLINWNGDKTYYADSVKGRFTISRDNSKNTLYLQMNSLRAEDTAIYYCAKHWIVFQYGMDVWGRGTTVTVSS VL: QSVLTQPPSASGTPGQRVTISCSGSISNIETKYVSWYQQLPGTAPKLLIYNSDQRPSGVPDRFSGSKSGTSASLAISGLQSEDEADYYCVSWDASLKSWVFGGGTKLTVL

[0.052, 2.14]

The measurements presented in this section are drawn from patent US20230265187A1.
